- targetEntity: CFTR G551D mutant (Homo sapiens, UniProt P13569, G551D)
- Construct: expressed in transfected cells; host or cells: HEK293 cells, reverse transfection with plasmids
- Sequence (P13569 whole entry G551D): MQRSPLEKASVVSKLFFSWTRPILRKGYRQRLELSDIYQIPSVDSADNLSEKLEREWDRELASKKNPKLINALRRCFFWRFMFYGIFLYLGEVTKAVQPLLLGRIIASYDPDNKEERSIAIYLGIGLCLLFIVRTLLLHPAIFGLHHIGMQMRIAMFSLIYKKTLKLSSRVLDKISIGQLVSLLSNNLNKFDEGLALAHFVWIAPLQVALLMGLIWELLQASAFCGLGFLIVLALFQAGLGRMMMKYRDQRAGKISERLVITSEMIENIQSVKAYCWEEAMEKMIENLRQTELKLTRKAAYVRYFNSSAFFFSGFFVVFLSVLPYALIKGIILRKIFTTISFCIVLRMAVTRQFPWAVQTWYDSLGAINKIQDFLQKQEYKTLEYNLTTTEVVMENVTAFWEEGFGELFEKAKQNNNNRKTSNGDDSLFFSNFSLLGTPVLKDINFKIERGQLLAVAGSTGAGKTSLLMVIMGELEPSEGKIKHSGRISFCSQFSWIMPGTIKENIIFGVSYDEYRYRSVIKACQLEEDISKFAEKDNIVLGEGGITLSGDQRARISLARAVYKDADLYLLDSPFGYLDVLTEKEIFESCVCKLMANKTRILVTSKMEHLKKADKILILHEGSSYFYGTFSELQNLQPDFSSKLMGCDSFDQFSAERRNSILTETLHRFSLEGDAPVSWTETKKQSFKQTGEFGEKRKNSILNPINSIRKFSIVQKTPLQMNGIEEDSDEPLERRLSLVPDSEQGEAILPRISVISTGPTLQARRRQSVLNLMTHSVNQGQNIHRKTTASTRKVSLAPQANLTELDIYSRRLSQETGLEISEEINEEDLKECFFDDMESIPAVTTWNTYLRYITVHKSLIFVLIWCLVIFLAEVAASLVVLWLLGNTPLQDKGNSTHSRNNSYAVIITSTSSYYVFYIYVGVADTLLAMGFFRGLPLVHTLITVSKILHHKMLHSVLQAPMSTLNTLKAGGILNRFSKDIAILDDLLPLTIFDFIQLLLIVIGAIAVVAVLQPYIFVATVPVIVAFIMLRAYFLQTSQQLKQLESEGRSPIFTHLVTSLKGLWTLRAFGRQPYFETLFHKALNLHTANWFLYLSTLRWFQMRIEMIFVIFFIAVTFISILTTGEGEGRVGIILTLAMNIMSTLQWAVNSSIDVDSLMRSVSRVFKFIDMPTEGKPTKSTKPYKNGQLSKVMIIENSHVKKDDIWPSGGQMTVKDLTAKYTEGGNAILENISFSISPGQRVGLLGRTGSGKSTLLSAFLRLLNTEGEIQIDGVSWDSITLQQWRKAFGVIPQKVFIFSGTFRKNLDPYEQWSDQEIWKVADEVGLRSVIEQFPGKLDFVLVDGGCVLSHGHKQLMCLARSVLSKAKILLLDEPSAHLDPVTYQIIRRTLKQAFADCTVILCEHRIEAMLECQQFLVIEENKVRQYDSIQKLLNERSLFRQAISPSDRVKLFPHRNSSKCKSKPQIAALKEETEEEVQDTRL
- testDescription: YFP-halide influx assay for the CFTR-G551D mutation (HEK293 cells)
- Assay type: cell-based
- conditionDescription: forskolin 10.67 μM
Note to self: EC50 under 1000 nM means t, ties and anything higher get f.

CC(C)OCC(O)CNC(=O)c1ncc(S(=O)(=O)c2ccc(OC(F)(F)F)cc2F)cc1N (stereo not shown) = t
Nc1cc(S(=O)(=O)c2ccc(OC(F)(F)F)cc2)cnc1C(=O)N1CC(CO)C1 = f
CN(CCC(F)(F)F)S(=O)(=O)c1cnc(C(=O)NCC(O)C(F)(F)F)c(N)c1 (stereo not shown) = f
COC[C@H](O)CNC(=O)c1ncc(S(=O)(=O)c2ccc(C(F)(F)F)cc2F)cc1N = t
Nc1cc(S(=O)(=O)c2ccc(OC(F)(F)F)cc2)cnc1C(=O)NCC1COCCO1 (stereo not shown) = f
CC(C)OCC(O)CNC(=O)c1ncc(S(=O)(=O)c2ccc(OC(F)(F)F)cc2)cc1N (stereo not shown) = t

# check: EC50 < 1000 nM for Nc1cc(S(=O)(=O)c2ccc(OC(F)(F)F)cc2)cnc1C(=O)N[C@@H]1COCC[C@@H]1O (racemic) f

Ok, now CC(C)c1ccc(S(=O)(=O)c2cnc(C(=O)NCC(O)C(F)(F)F)c(N)c2)cc1 (stereo not shown) t

Another: `Nc1cc(S(=O)(=O)c2ccc(OC(F)(F)F)cc2)cnc1C(=O)NCCO` f

Param item: `COC1CN(C(=O)c2ncc(S(=O)(=O)c3ccc(OC(F)(F)F)cc3)cc2N)C1` f

Here is the next molecule: Nc1cc(S(=O)(=O)c2ccc(OC(F)(F)F)cc2)cnc1C(=O)NCC(O)C(F)(F)F (stereo not shown) t

// same read-out, input: `Nc1cc(S(=O)(=O)c2ccc(OC(F)(F)F)cc2)cnc1C(=O)NC1(C(F)(F)F)COC1` f

Repeat for the following molecule: COCC(O)CNC(=O)c1ncc(S(=O)(=O)N2CCC[C@@H]2C)cc1N (stereo partly shown) f

Can you check Nc1cc(S(=O)(=O)c2ccc(OC(F)(F)F)cc2)cnc1C(=O)NCC(O)C(F)F (stereo not shown) next? t

Can you check `Nc1cc(S(=O)(=O)c2ccc(C(F)(F)F)cc2)cnc1C(=O)N1CCC[C@H]1CO` next? f

Also check `Nc1cc(S(=O)(=O)c2ccc(C(F)(F)F)cc2)cnc1C(=O)NCC1CC1` f

----------
- targetEntity: CFTR-G178R (Homo sapiens, UniProt P13569, G178R)
- Construct: expressed in transfected cells
- Sequence (P13569 whole entry G178R): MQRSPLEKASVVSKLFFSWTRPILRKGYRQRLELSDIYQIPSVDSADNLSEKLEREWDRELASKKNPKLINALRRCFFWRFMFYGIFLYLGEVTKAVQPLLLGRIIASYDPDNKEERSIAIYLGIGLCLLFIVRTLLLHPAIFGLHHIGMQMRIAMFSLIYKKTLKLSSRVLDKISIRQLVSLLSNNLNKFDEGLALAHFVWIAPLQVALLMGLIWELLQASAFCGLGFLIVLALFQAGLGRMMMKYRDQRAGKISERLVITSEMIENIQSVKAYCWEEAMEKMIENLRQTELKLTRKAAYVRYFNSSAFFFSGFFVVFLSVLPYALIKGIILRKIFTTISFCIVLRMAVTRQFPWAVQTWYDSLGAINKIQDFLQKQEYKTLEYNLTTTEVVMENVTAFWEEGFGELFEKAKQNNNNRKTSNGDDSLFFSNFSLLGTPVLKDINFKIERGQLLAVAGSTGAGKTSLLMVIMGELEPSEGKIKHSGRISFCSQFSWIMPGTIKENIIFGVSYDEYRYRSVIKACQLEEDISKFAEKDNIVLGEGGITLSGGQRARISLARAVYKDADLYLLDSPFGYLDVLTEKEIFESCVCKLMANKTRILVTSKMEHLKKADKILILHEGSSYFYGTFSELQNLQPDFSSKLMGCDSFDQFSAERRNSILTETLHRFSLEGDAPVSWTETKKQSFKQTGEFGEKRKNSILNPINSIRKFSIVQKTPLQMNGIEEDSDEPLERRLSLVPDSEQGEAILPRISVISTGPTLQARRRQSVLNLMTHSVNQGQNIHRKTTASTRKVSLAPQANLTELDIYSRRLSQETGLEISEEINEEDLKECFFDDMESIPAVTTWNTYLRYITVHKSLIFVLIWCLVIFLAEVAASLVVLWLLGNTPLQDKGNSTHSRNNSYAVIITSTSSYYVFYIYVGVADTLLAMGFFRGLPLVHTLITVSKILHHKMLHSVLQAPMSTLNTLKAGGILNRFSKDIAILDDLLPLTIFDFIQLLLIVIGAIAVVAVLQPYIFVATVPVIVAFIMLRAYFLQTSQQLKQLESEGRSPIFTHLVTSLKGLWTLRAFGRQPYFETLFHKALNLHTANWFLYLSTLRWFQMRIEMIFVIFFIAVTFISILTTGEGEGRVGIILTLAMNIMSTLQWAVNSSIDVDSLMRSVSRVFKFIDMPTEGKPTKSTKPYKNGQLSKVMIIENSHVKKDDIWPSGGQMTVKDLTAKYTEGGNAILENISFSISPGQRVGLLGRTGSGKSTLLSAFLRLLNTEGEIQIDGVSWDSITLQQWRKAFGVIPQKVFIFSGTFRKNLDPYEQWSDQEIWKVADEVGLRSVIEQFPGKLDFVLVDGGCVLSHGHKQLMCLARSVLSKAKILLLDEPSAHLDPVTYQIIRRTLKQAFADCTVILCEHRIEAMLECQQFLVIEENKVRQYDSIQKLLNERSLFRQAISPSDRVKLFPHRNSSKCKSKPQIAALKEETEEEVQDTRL
- testDescription: YFP-halide influx assay for the CFTR-G178R
- Assay type: cell-based
measurementName: % Activation
Don't forget the unit after the number, please.

Nc1cc(S(=O)(=O)c2ccccc2OC(F)(F)F)cnc1C(=O)N1CC(O)(C(F)(F)F)C1 = 77.69%
Nc1cc(S(=O)(=O)c2ccc(C(F)(F)F)cc2)cnc1C(=O)N1CC(OCC(F)F)C1 = 98.4%

Query: % Activation; subject: Nc1cc(S(=O)(=O)c2ccc(OC(F)(F)F)cc2)cnc1C(=O)NCC(O)C(F)(F)F (centres unmarked) 93.1%

Subsequent entry: `Nc1cc(S(=O)(=O)c2ccccc2OC(F)(F)F)cnc1C(=O)NC[C@@H](O)C(F)(F)F` 104.8%

And `Nc1cc(S(=O)(=O)c2ccccc2OC(F)(F)F)cnc1C(=O)NCCO` ? 94.3%

For `C[C@H](O)CNC(=O)c1ncc(S(=O)(=O)c2ccccc2OC(F)(F)F)cc1N` then? 106.7%

Lookup `Nc1cc(S(=O)(=O)c2ccc(OC(F)(F)F)cc2)cnc1C(=O)NCCO` 70.7%

What would you report for `Nc1cc(S(=O)(=O)c2ccc(F)cc2)cnc1C(=O)NC[C@@H](O)C(F)(F)F` ? 79.3%

The values you see were collected from patent US10047051B2.
